Data credit: ChEMBL document CHEMBL1126160

System: Escherichia coli
assay comment: Escherichia coli DNA cleavage endpoint value which is the minimum amount required (in micro g/mL) to induce detectable cleavage of supercoiled pBR322 substrate to linear form (gyrase)
Assay type: functional
stated conditions: read-out: MIC
The label 1.0 is reserved for minimum concentration inducing gyrase-mediated DNA cleavage strictly under 2 µg/mL; 0.0 covers values equal to or above it.

mol	label value
CN1C2CC[C@@H]1CCN(c1cc3c(cc1F)c(=O)c(C(=O)O)cn3-c1ccc(F)cc1)C2	1.0

hey, is minimum concentration inducing gyrase-mediated DNA cleavage for `CN1C2CC[C@@H]1CCN(c1cc3c(cc1F)c(=O)c(C(=O)O)cn3C)C2` lower than 2 µg/mL or not?
0.0

hey, is minimum concentration inducing gyrase-mediated DNA cleavage for `CCn1cc(C(=O)O)c(=O)c2cc(F)c(N3CC[C@H]4CCC(C3)N4C)c(F)c21` lower than 2 µg/mL or not?
0.0

hey, is minimum concentration inducing gyrase-mediated DNA cleavage for `C=Cn1cc(C(=O)O)c(=O)c2cc(F)c(N3C[C@H]4CC[C@@H](C3)N4C)cc21` lower than 2 µg/mL or not?
1.0

hey, is minimum concentration inducing gyrase-mediated DNA cleavage for `CN1C[C@@H]2C[C@H]1CN2c1c(F)cc2c(=O)c(C(=O)O)cn(-c3ccc(F)cc3F)c2c1Cl` lower than 2 µg/mL or not?
0.0

hey, is minimum concentration inducing gyrase-mediated DNA cleavage for `CN1C[C@@H]2C[C@H]1CN2c1cc2c(cc1F)c(=O)c(C(=O)O)cn2-c1ccc(F)cc1` lower than 2 µg/mL or not?
1.0

hey, is minimum concentration inducing gyrase-mediated DNA cleavage for `CN1[C@@H]2CC[C@H]1CN(c1c(F)cc3c(=O)c(C(=O)O)cn(CCF)c3c1F)C2` lower than 2 µg/mL or not?
1.0

hey, is minimum concentration inducing gyrase-mediated DNA cleavage for `O=C(O)c1cn(-c2ccc(F)cc2)c2cc(N3C[C@@H]4C[C@H]3CN4)c(F)cc2c1=O` lower than 2 µg/mL or not?
1.0

* * *

System: Bordetella bronchiseptica
assay comment: In vitro antibacterial activity against aerobically grown Bordetella bronchiseptica (73A009)
Assay type: functional
Measured log10(MIC), listed per entry for reference.
Could you please treat all values as log10 of MIC in µg/mL?

compound	assayed target	log10(MIC)
O=C(O)c1cn(-c2ccc(F)cc2)c2cc(N3CCN4CCCC3C4)c(F)cc2c1=O (stereo not given)	Bordetella bronchiseptica	0.19
Cl.O.O=C(O)c1cn(CCF)c2c(F)c(N3CCN4CCC3CC4)c(F)cc2c1=O	Bordetella bronchiseptica	0.80
CN1C[C@@H]2C[C@H]1CN2c1c(F)cc2c(=O)c(C(=O)O)cn(C3CC3)c2c1Cl	Bordetella bronchiseptica	-0.41

For `CN1C2CC[C@@H]1CCN(c1cc3c(cc1F)c(=O)c(C(=O)O)cn3CCF)C2` the compound record lists log10(MIC) as 0.19

For `CN1C[C@@H]2C[C@H]1CN2c1c(F)cc2c(=O)c(C(=O)O)cn(C3CC3)c2c1F` the compound record lists log10(MIC) as -0.41

For `O=C(O)c1cn(C2CC2)c2c(F)c(N3C[C@@H]4C[C@H]3CN4)c(F)cc2c1=O` the compound record lists log10(MIC) as -0.41

For `C=Cn1cc(C(=O)O)c(=O)c2cc(F)c(N3CC[C@H]4CCC(C3)N4C)cc21` the compound record lists log10(MIC) as 0.19

For `Cl.O.O=C(O)c1cn(C2CC2)c2cc(N3CCN4CCC3CC4)c(F)cc2c1=O` the compound record lists log10(MIC) as -0.41

For `O=C(O)c1cn(-c2ccc(F)cc2F)c2c(F)c(N3C[C@@H]4C[C@H]3CN4)c(F)cc2c1=O` the compound record lists log10(MIC) as 0.19

For `CCn1cc(C(=O)O)c(=O)c2cc(F)c(N3CCN4CCC3CC4)c(F)c21.Cl.O` the compound record lists log10(MIC) as -0.11
